Below, each entry is listed with its recorded growth.
- Test system: HT29 colon
- Test Summary: NCI-60 one-dose screen, 48 h (100 = growth as untreated, 0 = no growth, -100 = all killed)
- Condition Summary: 10 µM unless noted
This is part of a sample that, as a whole, favours compounds with a hit. Of some 83,000 tested, about 20% had one in any assay.

# Molecule, Assay System, Unit Info, growth
records = [
    ("O=C1CC(c2ccsc2)c2snc(-c3ccc(Cl)cc3)c2N1 (stereo unspecified)", "HT29 colon", "%", 3.6),
    ("O=C(c1ccccc1)C(Br)C(Br)c1cccc([N+](=O)[O-])c1 (stereo unspecified)", "HT29 colon", "%", -42.4),
    ("O=C(COc1cccc(/C=C2\\COc3ccccc3C2=O)c1)c1ccccc1", "HT29 colon", "%", 41.2),
    ("COc1cc(C(=O)N(C(C)C)C2CCCCC2)cc(OC)c1OC", "HT29 colon", "%", 99.2),
    ("Nc1ccccc1-c1n[nH]c(=O)[nH]c1=O", "HT29 colon", "%", 106),
    ("Cc1nn(-c2ccccc2)c2nc3nc4c(c(N)c3c(-c3ccc(Cl)cc3)c12)CCCC4", "HT29 colon", "%", 91.5),
]

----------
- Tested on: OVCAR-4 ovarian
- Test Summary: NCI-60 one-dose screen, 48 h (100 = growth as untreated, 0 = no growth, -100 = all killed)
- Condition Summary: 10 µM unless noted
The panel holds about 83,000 compounds, 20% with a hit somewhere; the sample as a whole holds those more often.

# Smiles String, Unit Info, growth
data = [
    ("COc1ccccc1CNCCCCCCCCCCCCN1C(=O)c2ccc3c4c(ccc(c24)C1=O)C(=O)N(CCCCCCCCCCCCNCc1ccccc1OC)C3=O", "%", 92.3),
    ("Cc1ccc(C)c2c1sc1nc3nc4sc5ccccc5n4c(=N)c3c(=O)n12", "%", 88),
    ("CNc1ccc(Br)cc1-c1n[nH]c(=O)[nH]c1=O", "%", 90.9),
]

----------
- Test system: SK-MEL-28 melanoma
- Test Summary: NCI-60 one-dose screen, 48 h
- Condition Summary: 10 µM unless noted
This is part of a sample that, as a whole, favours compounds with a hit. Of some 83,000 tested, about 20% had one in any assay. Calls of active or inactive are those of the source. The calls were made as follows: active = growth percent below 10; inactive = the rest.
Classes used: active, inactive

# Compound, Assay System, Answer Label
records = [
    ("C=C1CC[C@@H]2[C@@](C)(CCC[C@]2(C)C(=O)O)[C@@H]1CC[C@H](CO)CCO", "SK-MEL-28 melanoma", "inactive"),
    ("Cc1ccc(S(=O)(=O)N2CCc3ccc(O)c4c3C2Cc2cc(Cl)ccc2-4)cc1 (centres undefined)", "SK-MEL-28 melanoma", "inactive"),
    ("O=[N+]([O-])c1cc2c(cc1Br)C1C(C3C2C(Cl)(Cl)C(Cl)=C(Cl)C3(Cl)Cl)C(Cl)(Cl)C(Cl)=C(Cl)C1(Cl)Cl (centres undefined)", "SK-MEL-28 melanoma", "inactive"),
    ("O=C1C=CC(=O)N1CCCCCCCCCCN1C(=O)C=CC1=O", "SK-MEL-28 melanoma", "inactive"),
    ("CC(C)N1CCN(c2ccc(OC[C@H]3CO[C@](Cn4cncn4)(c4ccc(Cl)cc4Cl)O3)cc2)CC1", "SK-MEL-28 melanoma", "inactive"),
    ("O=[N+]([O-])c1ccc(O)c2ncccc12", "SK-MEL-28 melanoma", "inactive"),
    ("Cc1ccc(S(=O)(=O)N2CCc3ccc(O)c4c3C2Cc2ccc3c(c2-4)OCO3)cc1 (centres undefined)", "SK-MEL-28 melanoma", "inactive"),
    ("COC(=O)c1c2c(c(C)[n+]([O-])c1C)C(=O)C=C(NCc1ccc(Cl)cc1)C2=O", "SK-MEL-28 melanoma", "inactive"),
    ("CC[Si](CC)(CC)OC1[C@@H](O[Si](CC)(CC)CC)[C@@H](CNC(=O)NC)O[C@H]1n1cnc2c(NC(=O)Nc3ccccc3)ncnc21 (some centres undefined)", "SK-MEL-28 melanoma", "inactive"),
    ("COc1cc(C2CC(=O)Nc3c2ccc2ccccc32)cc(Br)c1OC (centres undefined)", "SK-MEL-28 melanoma", "inactive"),
    ("CN1CCc2c(c3ccccc3c3ccccc23)C1", "SK-MEL-28 melanoma", "inactive"),
    ("Cc1ccccc1-c1cc(-c2ccc(Br)s2)[nH]c(=O)c1C#N", "SK-MEL-28 melanoma", "inactive"),
    ("Cc1c(C)n(CC(O)CNC2CCCCC2C)c2ccccc12 (centres undefined)", "SK-MEL-28 melanoma", "active"),
    ("O=c1onc(-c2ccccc2)c2ccccc12", "SK-MEL-28 melanoma", "inactive"),
    ("O=C1/C(=C/c2ccccc2F)CNC/C1=C\\c1ccccc1F", "SK-MEL-28 melanoma", "active"),
    ("CCCCCCCC/C=C\\CCCCCCCCOc1cccc(CC(=O)NCC[N+](C)(C)C)c1", "SK-MEL-28 melanoma", "inactive"),
    ("O=C1C(N2CCOCC2)=Cc2cccc3cccc1c23", "SK-MEL-28 melanoma", "inactive"),
    ("Cc1nn(CC(=O)O)c2c1C(=O)CC(C)(C)C2", "SK-MEL-28 melanoma", "inactive"),
    ("FC(F)(F)c1cc(CNc2nc(Cl)ncc2Br)cc(C(F)(F)F)c1", "SK-MEL-28 melanoma", "inactive"),
    ("CC(=O)OC[C@H](O)[C@@]1(O)CC[C@H]2[C@@H]3CCC4=CC(=O)CC[C@]4(C)[C@H]3[C@@H](O)C[C@@]21C", "SK-MEL-28 melanoma", "inactive"),
    ("CCCCCCCC/C=C\\CCCCCCCCOc1cccc(CC(=O)NCC[N+]2(C)CCOCC2)c1", "SK-MEL-28 melanoma", "inactive"),
    ("CCCCC1COc2cccc3c(SCC(=O)N(C)c4cccc5ccccc45)cc[n+]1c23 (centres undefined)", "SK-MEL-28 melanoma", "inactive"),
    ("COc1cc(/C=C/C(=O)CC(=O)/C=C/c2cc(Br)c(OC)c(OC)c2)cc(Br)c1OC", "SK-MEL-28 melanoma", "inactive"),
    ("CCC(C)[C@H]1O[C@]2(CC[C@@H]1C)C[C@@H]1C[C@@H](C/C=C(\\C)[C@@H](OC3C[C@H](OC)C(O[C@H]4C[C@H](OC)[C@@H](O)[C@H](C)O4)[C@H](C)O3)[C@@H](C)/C=C/C=C3\\CO[C@@H]4[C@H](O)C(C)=C[C@@H](C(=O)O1)[C@]34O)O2 (some centres undefined)", "SK-MEL-28 melanoma", "active"),
    ("COc1ccc(/C=C2\\SC(=O)N(CN3CCN(c4cc5c(cc4F)c(=O)c(C(=O)O)cn5C4CC4)CC3)C2=O)cc1", "SK-MEL-28 melanoma", "inactive"),
    ("COc1ccc(NC(=O)c2ccc3c(c2)nc(-c2ccc(Cl)cc2)n3-c2cc(C(C)(C)C)[nH]n2)cc1", "SK-MEL-28 melanoma", "inactive"),
    ("Clc1ccc(C2=Nc3cccc4cccc(c34)N2)cc1Cl", "SK-MEL-28 melanoma", "inactive"),
    ("COc1cc2nc(SCc3cc(OC)c(OC)c(OC)c3)n(-c3ccccc3OC)c(=O)c2cc1OC", "SK-MEL-28 melanoma", "inactive"),
    ("COc1ccc(CSc2nc3cc(OC)c(OC)cc3c(=O)n2-c2ccc(Cl)cc2)cc1", "SK-MEL-28 melanoma", "inactive"),
]

----------
- Tested on: SK-MEL-2 melanoma
- Test Summary: NCI-60 one-dose screen, 48 h (100 = growth as untreated, 0 = no growth, -100 = all killed)
- Condition Summary: 10 µM unless noted
About 83,000 compounds went through this panel and 20% of them were active in at least one assay; those are over-represented in the sample as a whole.
# binarize growth: threshold 80% inclusive, high side yes, low side no

# Molecule, Answer Label
data = [
    ("COc1ccc(/C=N\\N2CCOCC2)cc1OC1CCCC1", "yes"),
    ("COc1cccc(C2CC(=O)Nc3cc4c(cc32)CCC4)c1OC (stereo unspecified)", "no"),
    ("COc1cc(C(=O)/C=C/c2c(-c3cccs3)nc3sccn23)cc(OC)c1OC", "no"),
    ("Oc1ccc(Cl)cc1CNc1nc2ccccc2[nH]1", "yes"),
    ("COc1ccc(OC2=C(C#N)C(=N)N3c4ccccc4Sc4ccccc4C3N2)cc1 (stereo unspecified)", "yes"),
    ("CCCCCCCC/C=C\\CCCCCCCCOc1cccc(CC(=O)NCC[N+]2(C)CCCCC2)c1", "yes"),
    ("CC1(C)N=C(N)N=C(N)N1c1cccc(OCCOc2cccc([N+](=O)[O-])c2)c1", "no"),
    ("O=C(O)c1ccccc1Oc1cc(-c2ccco2)nc(OCCBr)n1", "yes"),
    ("CCOC(=O)c1sc(NC(=O)CN2CCC(Cc3ccccc3)CC2)nc1C", "yes"),
    ("COc1cccc(Nc2nc(NCCO)c3ccccc3n2)c1", "yes"),
    ("Cc1nc2cc(Nc3nc(N4CCCCC4)nc(N4CCOCC4)n3)ccc2n1Cc1ccccc1", "no"),
    ("ONc1nc(NO)c2[nH]cnc2n1", "yes"),
    ("Cc1nn(-c2ccccc2)c2nc3nc4c(c(N)c3c(-c3ccc(Cl)cc3)c12)CCCC4", "yes"),
    ("Cc1nc2cc(Nc3nc(Nc4ccc(F)cc4)nc(N4CCCC4)n3)ccc2n1Cc1ccccc1", "no"),
    ("Cc1nc2cc(Nc3nc(N4CCOCC4)nc(N4CCN(C)CC4)n3)ccc2n1Cc1ccccc1", "yes"),
    ("CCOc1ccc(-c2cnnn2-c2nonc2-n2cccc2)cc1", "no"),
    ("Fc1ccccc1Nc1ccc2nnc(-c3ccncc3)n2n1", "yes"),
    ("O=C(CCCCCCC(=O)Nc1ccc2c(c1)/C(=C/c1ccc[nH]1)C(=O)N2)NO", "no"),
    ("O=S(=O)(Nc1ccccc1Cl)c1ccc(-c2cnc(C3CC3)o2)cc1", "no"),
    ("COc1ccc(/C=C2\\SC(=O)N(CN3CCN(c4cc5c(cc4F)c(=O)c(C(=O)O)cn5C4CC4)CC3)C2=O)cc1", "yes"),
    ("O=C(NC1CC1)c1cc2n(n1)CC(c1ccccc1)N2 (stereo unspecified)", "yes"),
    ("CSC1=CC(=O)c2ccccc2C1=O", "yes"),
    ("COc1cc(C2=NN(c3ccc(S(N)(=O)=O)cc3)C(c3ccc(Cl)cc3)C2)cc(OC)c1OC (stereo unspecified)", "no"),
    ("O=S(=O)(Nc1ccc(Cl)c(Cl)c1)c1ccc(-c2cnc(C3CC3)o2)cc1", "no"),
    ("CC1SC(c2ccc(Cl)cc2)N(CCc2cccs2)C1=O (stereo unspecified)", "no"),
]
